Below, each of the molecules is paired with its reported IC50 value.
assayed_target: full-length MALT1 protein His-MALT1(1-824) (Homo sapiens (Human), UniProt Q9UDY8)
Sequence (Q9UDY8 whole entry): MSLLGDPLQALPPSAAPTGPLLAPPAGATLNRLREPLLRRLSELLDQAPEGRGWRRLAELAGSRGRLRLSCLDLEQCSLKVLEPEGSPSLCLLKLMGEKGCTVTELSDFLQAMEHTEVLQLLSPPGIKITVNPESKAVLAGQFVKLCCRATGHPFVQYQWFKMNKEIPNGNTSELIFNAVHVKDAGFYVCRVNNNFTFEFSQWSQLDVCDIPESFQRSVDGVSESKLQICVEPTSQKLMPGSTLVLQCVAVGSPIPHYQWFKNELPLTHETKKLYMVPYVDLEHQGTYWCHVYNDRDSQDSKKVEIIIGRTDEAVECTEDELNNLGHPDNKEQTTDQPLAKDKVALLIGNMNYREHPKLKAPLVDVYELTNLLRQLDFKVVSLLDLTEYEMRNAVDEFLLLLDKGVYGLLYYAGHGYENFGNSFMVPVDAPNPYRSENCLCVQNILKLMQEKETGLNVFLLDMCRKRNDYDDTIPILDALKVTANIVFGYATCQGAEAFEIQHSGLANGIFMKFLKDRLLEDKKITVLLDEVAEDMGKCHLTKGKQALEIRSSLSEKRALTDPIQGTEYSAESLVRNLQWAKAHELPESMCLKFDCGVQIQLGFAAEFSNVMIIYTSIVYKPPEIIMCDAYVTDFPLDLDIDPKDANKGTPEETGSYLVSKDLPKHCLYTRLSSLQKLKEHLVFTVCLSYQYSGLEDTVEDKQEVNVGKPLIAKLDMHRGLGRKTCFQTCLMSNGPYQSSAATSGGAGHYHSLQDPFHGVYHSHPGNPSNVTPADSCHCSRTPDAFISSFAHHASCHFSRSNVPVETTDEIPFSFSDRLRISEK
assay_comment: MALT1 protease assay, Assay 2 (1 nM MALT1, Ac-LRSR-AMC substrate)
Format: biochemical
experimental_setup: 1 nM MALT1, 50 μM Ac-LRSR-AMC, 2 h pre-incubation, 8 hr incubation at RT

C[C@@]1(C(F)(F)F)CN(C(=O)Nc2cnnc(C(F)(F)F)c2)c2cnc3cc(Cl)nn3c21 [compound 59] | 10 to 100 nM
CC(C)(O)Cn1ccc(-c2ncc(NC(=O)N3C[C@@](C)(C(F)(F)F)c4c3cnc3cc(F)nn43)cc2C(F)F)n1 [compound 162] | 10 to 100 nM
C[C@]1(C(F)(F)F)CN(C(=O)Nc2cnc(-n3nccn3)c(C#N)c2)c2cnc3cc(F)nn3c21 [compound 90] | 10 to 100 nM
CN1CC[C@H](Oc2cc(OC(F)F)cc(NC(=O)N3C[C@@](C)(C(F)(F)F)c4c3cnc3cc(Cl)nn43)n2)C1 [compound 198] | 10 to 100 nM
C[C@@]1(C(F)(F)F)CN(C(=O)Nc2cc(C(F)F)nnc2C#N)c2cnc3cc(Cl)nn3c21 [compound 143] | 100 to 1000 nM

[ask] Which measured IC50 value corresponds to C[C@@]1(C(F)(F)F)CN(C(=O)Nc2cnc(-n3cncn3)c(Cl)c2)c2cnc3cc(F)nn3c21 [compound 202] ?
[reply] 10 to 100 nM

[ask] Further, for C[C@@]1(C(F)(F)F)CN(C(=O)NC2CCC3(CC2)CC3)c2cnc3cc(Cl)nn3c21 [compound 172] ?
[reply] 100 to 1000 nM

* * *

Below, each of the compounds is paired with its reported IC50 value.
assayed_target: full-length MALT1 protein His-MALT1(1-824) (Homo sapiens (Human))
assay_comment: MALT1 protease assay, Assay 2 (1 nM MALT1, Ac-LRSR-AMC substrate)
Format: biochemical
experimental_setup: 1 nM MALT1, 50 μM Ac-LRSR-AMC, 2 h pre-incubation, 8 hr incubation at RT
Where a name gives a salt, the structure may show the parent alone.

C[C@@]1(C(F)(F)F)CN(C(=O)Nc2cc(C(F)F)ncn2)c2cnc3cc(Cl)nn3c21 | 10 to 100 nM
Cc1cc(NC(=O)N2C[C@@](C)(C(F)(F)F)c3c2cnc2cc(Cl)nn32)cc(OC[C@H](C)N)n1 | 10 to 100 nM
C[C@H](O)COc1ncc(NC(=O)N2C[C@@](C)(C(F)(F)F)c3c2cnc2cc(Cl)nn32)cc1Cl | 10 to 100 nM
C[C@@]1(C(F)(F)F)CN(C(=O)Nc2cnn(C(F)F)c2)c2cnc3cc(Cl)nn3c21 | 10 to 100 nM
C[C@@]1(C(F)(F)F)CN(C(=O)Nc2cc(C(F)F)on2)c2cnc3cc(Cl)nn3c21 | 100 to 1000 nM
CN1CC(Oc2cc(NC(=O)N3C[C@@](C)(C(F)(F)F)c4c3cnc3cc(Cl)nn43)cc(C(F)(F)F)n2)C1 | 10 to 100 nM
COc1c(C)cc(NC(=O)N2C[C@@](C)(C(F)(F)F)c3c2cnc2cc(Cl)nn32)nc1O[C@H]1CCNC1 [compound 82, formate] | 10 to 100 nM
C[C@@]1(C(F)(F)F)CN(C(=O)Nc2cc(OC(F)F)cc(O[C@H]3CCNC3)n2)c2cnc3cc(Cl)nn3c21 | 10 to 100 nM

[ask] Which measured IC50 value corresponds to CNc1cc(NC(=O)N2C[C@@](C)(C(F)(F)F)c3c2cnc2cc(Cl)nn32)cnc1-n1nccn1 ?
[reply] 100 to 1000 nM

[ask] Further, for C[C@@]1(C(F)(F)F)CN(C(=O)NC2CCC(F)(F)CC2)c2cnc3cc(Cl)nn3c21 ?
[reply] 100 to 1000 nM

[ask] Further, for C[C@@]1(C(F)(F)F)CN(C(=O)Nc2cc(C(F)F)nnc2C(N)=O)c2cnc3cc(Cl)nn3c21 ?
[reply] 100 to 1000 nM

[ask] Further, for C[C@@]1(C(F)(F)F)CN(C(=O)Nc2cc(C(F)(F)F)n[nH]2)c2cnc3cc(Cl)nn3c21 ?
[reply] 10 to 100 nM

[ask] Further, for C[C@@]1(C(F)(F)F)CN(C(=O)Nc2cc(C(F)F)n[nH]2)c2cnc3cc(Cl)nn3c21 ?
[reply] 10 to 100 nM

[ask] Further, for COc1nc(OC2CN(C)C2)c(NC(=O)N2C[C@@](C)(C(F)(F)F)c3c2cnc2cc(Cl)nn32)cc1Cl ?
[reply] 100 to 1000 nM

[ask] Further, for Cc1cn2ncc3c(c2n1)C(C)(C)CN3C(=O)Nc1cnc(-n2nccn2)c(Cl)c1 ?
[reply] 10 to 100 nM

[ask] Further, for CNc1nnc(C(F)(F)F)cc1NC(=O)N1C[C@@](C)(C(F)(F)F)c2c1cnc1cc(Cl)nn21 ?
[reply] 100 to 1000 nM

[ask] Further, for C[C@@]1(C(F)(F)F)CN(C(=O)Nc2cnc(C(=O)N3CCC3)c(C(F)F)c2)c2cnc3cc(Cl)nn3c21 ?
[reply] 100 to 1000 nM

[ask] Further, for C[C@@]1(C(F)(F)F)CN(C(=O)Nc2cc(C(F)(F)F)ncc2F)c2cnc3cc(Cl)nn3c21 ?
[reply] 10 to 100 nM

[ask] Further, for COc1cn(-c2ncc(NC(=O)N3C[C@@](C)(C(F)(F)F)c4c3cnc3cc(Cl)nn43)cc2Cl)nn1 ?
[reply] 10 to 100 nM

[ask] Further, for CN1CC[C@H](Oc2cc(NC(=O)N3C[C@@](C)(C(F)(F)F)c4c3cnc3cc(Cl)nn43)cc(C(F)F)n2)C1 ?
[reply] 10 to 100 nM

[ask] Further, for C[C@@H](N)COc1cc(NC(=O)N2C[C@@](C)(C(F)(F)F)c3c2cnc2cc(Cl)nn32)cn(C(F)F)c1=O ?
[reply] 100 to 1000 nM

[ask] Further, for C[C@@]1(C(F)(F)F)CN(C(=O)Nc2cc(NC3COC3)nc(C(F)(F)F)c2)c2cnc3cc(Cl)nn3c21 ?
[reply] 100 to 1000 nM
